experiment: Relative toxicities of MOH and MOP in mice; parameters: species or system Balb C nu/nu mice; conditions: mouse, in vivo, ip, two equal doses spaced 4 days apart
Provide the reported LD50 of each item.
Report only the number, with the unit mg/kg understood.

**Query** Fill in: LD50 of CO[C@@]12[C@H](COC(N)=O)C3=C(C(=O)C(C)=C(NCCOP(=O)(O)O)C3=O)N1C[C@@H]1N[C@@H]12 [MOP, 7-(2'-aminoethyl phosphate)mitomycin] is ___
**Result** 90

**Query** Fill in: LD50 of CO[C@@]12[C@H](COC(N)=O)C3=C(C(=O)C(C)=C(NCCO)C3=O)N1C[C@@H]1N[C@@H]12 [MOH, reference compound] is ___
**Result** 45

====

test system: H3347 tumor cells; test: 3H-thymidine uptake assay on H3347 cells; assay type: cell-based, human; details: Homo sapiens, 6 h drug exposure
readout: IC50 (µM)
Report only the number, with the unit µM understood.

**Query** Which measured IC50 belongs to COc1cc([C@@H]2c3cc4c(cc3[C@@H](O[C@@H]3O[C@@H]5CO[C@@H](C)O[C@H]5[C@H](O)[C@H]3O)[C@H]3COC(=O)[C@H]23)OCO4)cc(OC)c1O [etoposide, reference compound] , tested on H3347 tumor cells?
**Result** 1

====

system: H2981 tumor cells; assay: cells; details: Homo sapiens
readout: IC50

**Query** Which measured IC50 belongs to CO[C@@]12[C@H](COC(N)=O)C3=C(C(=O)C(C)=C(NCCO)C3=O)N1C[C@@H]1N[C@@H]12 [MOH, reference compound] , tested on H2981 tumor cells?
**Result** ~1 µM

**Query** Which measured IC50 belongs to COc1cc([C@@H]2c3cc4c(cc3[C@@H](O[C@@H]3O[C@@H]5CO[C@@H](C)O[C@H]5[C@H](O)[C@H]3O)[C@H]3COC(=O)[C@H]23)OCO4)cc(OC)c1O [etoposide, reference compound] , tested on H2981 tumor cells?
**Result** 2 µM

Origin of values: patent EP0540859B1
